Test system: RPMI-8226 leukemia
assay.notes: NCI tumour cell line growth inhibition, 48 h
observable: TGI

The cases that follow already have their TGI on record.
compound: CO[C@@H]1O[C@H](C(=O)c2ccccc2)[C@H]2OC(C)(C)O[C@@H]12
TGI: > 100 µM
--
compound: CN(C)CCNC(=O)c1cccc2nc(-c3ccccc3)oc12
TGI: > 100 µM

Shifting focus to the compound that follows.
Query for RPMI-8226 leukemia: what TGI does the record show for Nc1ncnc2c1ncn2CC(O)CO (stereo not drawn) ?
> 100 µM

---

Each record here notes measured TGI.
Tested on: EKVX NSCLC
assay.notes: NCI tumour cell line growth inhibition, 48 h

The cases that follow already have their TGI on record.
molecule: CN(C)C(=S)/N=c1\ssc(=S)n1Cc1ccncc1
TGI: > 100 µM
--
molecule: CSc1n[nH]c(N)c1C(=O)Nc1ccccc1
TGI: > 100 µM
--
molecule: Cc1cc(N(CCC#N)CCC#N)ccc1/C=C(\NC(=O)/C=C/c1ccccc1)C(=O)NN
TGI: > 100 µM
--
molecule: Nc1ccc(/C=C/C(=O)NCc2cc3cc(-c4ccc(C(=O)N5CCC(F)(F)CC5)cc4)cc(-c4ccc(F)cc4)c3o2)cn1
TGI: > 100 µM

Shifting focus to the molecule that follows.
Sample "C=CC(OCC)(OCC)OCC" — what was its TGI?
> 100 µM

meta.source: PubChem BioAssay (NCI)
